Tested on: HCT116 MTAP null cells
Assay: HCT116 proliferation assay, MTAP null cells (CellTiter-Glo, 6 days)
Assay type: cell-based
Conditions: HCT116-MTAP null, 144 h, read-out: Protif_ HCT116-MTAP null IC50
Protocol: HCT116 MTAP null and WT cells were seeded in 96-well tissue culture plates in RPMI 1640 media + 10% fetal bovine serum. Plates were incubated overnight at 37° C. and 5% CO2. […] Effects on cell viability were measured with the CellTiter-Glo® Luminescent Cell Viability Assay (Promega) per manufacturer’s recommendation. Assay plates were read on an EnVision™ Multilabel Reader using the Ultra-Sensitive luminescence module.
Reported pIC50 values for a set of compounds
Friendly reminder that pIC50 comes from taking -log10 of the concentration in mol/L.

INSERT INTO assay_data (compound, property_name, result_value) VALUES
  ('Cc1cc(CN(Cc2ccc(C(F)(F)F)cn2)C(=O)c2cc3cc(C)c(N)nc3cc2F)no1', 'pIC50', 6.27),
  ('CC1COCCC1N(Cc1ccc(C(F)(F)F)cn1)C(=O)c1ccc2nc(N)c(Br)cc2c1 (stereo not shown)', 'pIC50', 6.42),
  ('Cc1cc2cc(C(=O)N(Cc3cncc(Cl)c3)Cc3ccc(C(F)(F)F)cn3)ccc2nc1N', 'pIC50', 6.46),
  ('Cc1cc2cc(C(=O)N(Cc3ccc(C(F)(F)F)cn3)[C@H](C)c3cccc(F)n3)ccc2nc1N', 'pIC50', 7.89),
  ('Cc1cc2cc(C(=O)N(Cc3ccc(C(F)(F)F)cn3)Cc3ccc[nH]c3=O)ccc2nc1N', 'pIC50', 6.44),
  ('Cc1cc2cc(C(=O)N(Cc3ccc(C(F)(F)F)nn3)[C@@H](c3ncccn3)C3CC3)ccc2nc1N (single isomer, unassigned)', 'pIC50', 7.33);

Here is another compound to look at.
Query :: Return reported pIC50; argument: CC[C@H](c1ncccn1)N(Cc1ccc(C(F)F)cn1)C(=O)c1ccc2nc(N)c(Br)cc2c1 (single isomer, unassigned)
Result :: 6.97

----------
tested on: HCT116 WT cells; assay: HCT116 proliferation assay, WT cells (CellTiter-Glo, 6 days); assay type: cell-based; details: Homo sapiens, HCT-116, 144 h, read-out: Prolif_HCT116-WT IC50
property-name: pIC50
Please report pIC50 as the negative decimal logarithm of the molar concentration, giving only the number.

In the examples that follow, each entry is paired with its recorded pIC50.
INSERT INTO results (compound, tested_system, property_name, result_value) VALUES
  ('[2H]C([2H])([2H])c1cc2cc(C(=O)N(Cc3ccc(C(F)(F)F)cn3)CC(C)C)ccc2nc1N [Example 398]', 'HCT116 WT cells', 'pIC50', 5.32),
  ('Cc1cc2cc(C(=O)N(Cc3ccc(N4CCOCC4)nn3)C(C)c3ncccn3)c(F)cc2nc1N (stereo in doubt) [Example 731]', 'HCT116 WT cells', 'pIC50', 6.16),
  ('Cc1cc2cc(C(=O)N(Cc3ccc(C(F)(F)F)cn3)[C@@H]3CCC[C@H]3OC(F)F)ccc2nc1N [Example 816]', 'HCT116 WT cells', 'pIC50', 6.43),
  ('CO[C@@H]1Cc2ccccc2[C@H]1N(Cc1ccc(C(F)(F)F)cn1)C(=O)c1ccc2nc(N)c(C)cc2c1 [Example 751]', 'HCT116 WT cells', 'pIC50', 5.76),
  ('Cc1cc2cc(C(=O)N(Cc3ccc(C(F)(F)F)cn3)[C@@H]3CCc4ccccc43)ccc2nc1N [Example 601]', 'HCT116 WT cells', 'pIC50', 6.09);

Query :: Name the reported pIC50 value associated with the compound Cc1cc2cc(C(=O)N(Cc3ccc(C#N)cn3)CC3CC3)c(F)cc2nc1N [Example 307]
Result :: 5.12

Query :: Subsequent entry: Cc1cc2cc(C(=O)N(Cc3ccc(C(F)(F)F)cn3)Cc3ncc(F)cc3F)ccc2nc1N [Example 384]
Result :: 5.29

----------
biological target: PRMT5/MEP50 (Homo sapiens); experiment: MTase-Glo methyl transferase assay, Method B (FL-Histone H2A, 1 µM MTA, 1 h pre-incubation); format: biochemical; design: purchased Reaction Biology Corp RD-11-292; conditions: read-out: PRMT5 MTase Glo Ki (nM, Meth. B)
Sequence (O14744 2-637 limits assumed): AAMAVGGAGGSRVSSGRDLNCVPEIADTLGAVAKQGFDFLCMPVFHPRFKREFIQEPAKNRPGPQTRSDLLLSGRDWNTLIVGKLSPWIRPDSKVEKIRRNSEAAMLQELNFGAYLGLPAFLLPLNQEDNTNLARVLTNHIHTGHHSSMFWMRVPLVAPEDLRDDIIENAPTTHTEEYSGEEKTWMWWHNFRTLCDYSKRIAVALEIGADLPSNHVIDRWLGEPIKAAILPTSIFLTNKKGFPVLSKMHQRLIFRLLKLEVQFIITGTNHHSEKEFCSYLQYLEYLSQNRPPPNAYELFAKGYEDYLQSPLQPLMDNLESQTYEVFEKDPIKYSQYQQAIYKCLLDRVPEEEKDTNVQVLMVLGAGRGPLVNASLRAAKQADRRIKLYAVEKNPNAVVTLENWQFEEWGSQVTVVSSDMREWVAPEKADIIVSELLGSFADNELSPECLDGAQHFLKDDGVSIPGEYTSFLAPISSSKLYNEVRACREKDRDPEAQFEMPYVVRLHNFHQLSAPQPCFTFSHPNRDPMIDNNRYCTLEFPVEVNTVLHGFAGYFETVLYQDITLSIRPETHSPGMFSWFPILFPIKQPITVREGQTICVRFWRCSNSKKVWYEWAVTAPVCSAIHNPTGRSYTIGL
Sequence (Q9BQA1 2-342 partner limits assumed): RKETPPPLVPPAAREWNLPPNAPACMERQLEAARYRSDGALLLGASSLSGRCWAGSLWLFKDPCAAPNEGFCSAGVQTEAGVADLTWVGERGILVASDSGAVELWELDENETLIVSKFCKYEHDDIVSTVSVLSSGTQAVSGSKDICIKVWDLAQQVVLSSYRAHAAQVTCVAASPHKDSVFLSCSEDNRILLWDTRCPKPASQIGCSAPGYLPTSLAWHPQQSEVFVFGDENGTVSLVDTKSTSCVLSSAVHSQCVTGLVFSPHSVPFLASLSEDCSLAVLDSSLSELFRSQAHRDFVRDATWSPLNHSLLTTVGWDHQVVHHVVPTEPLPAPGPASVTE
property-name: Ki (nM)
Quick reminder: number only, in nM, skip the unit.

INSERT INTO results (molecule, property_name, result_value) VALUES
  ('Cc1cc2cc(C(=O)N(Cc3ccc(C(F)(F)F)cn3)C(C)CC#N)ccc2nc1N (centres unmarked)', 'Ki', 6.14),
  ('Cc1cc2cc(C(=O)N(Cc3ccc(C(F)(F)F)cn3)C3CC3C3CC3)ccc2nc1N (centres unmarked)', 'Ki', 9.63);

Query :: Fill in: Ki of Cc1nc2c(s1)C(N(Cc1ccc(C(F)(F)F)cn1)C(=O)c1ccc3nc(N)c(C)cc3c1)CCC2 (centres unmarked) is ___
Result :: 5.46

Query :: Further, for `Cc1cc2cc(C(=O)N(Cc3ccc4cn[nH]c4c3)Cc3ccc(C(F)(F)F)cn3)ccc2nc1N` ?
Result :: 1.87

Query :: Moving on to Cc1cc2cc(C(=O)N(Cc3ccc(C(F)(F)F)cn3)C3CCc4[nH]ncc4C3)ccc2nc1N (centres unmarked)
Result :: 5.56

Query :: Next molecule up: Cc1cc2cc(C(=O)N(Cc3ccc(C(F)(F)F)cn3)C3CCC(C)c4ccccc43)ccc2nc1N (centres unmarked)
Result :: 7.26

Query :: One more molecule: `Cc1cc2cc(C(=O)N(Cc3ccc(C(F)(F)F)cn3)Cc3ccc[nH]c3=O)ccc2nc1N`
Result :: 2.8

Query :: How about `Cc1cc2cc(C(=O)N(Cc3ccc[nH]3)Cc3ccnc4[nH]ccc34)ccc2nc1N` ?
Result :: 2.94

----------
test system: HCT116 MTAP null cells; test: HCT116 proliferation assay, MTAP null cells (CellTiter-Glo, 6 days); assay type: cell-based; settings: HCT116-MTAP null, 144 h, read-out: Protif_ HCT116-MTAP null IC50
This listing pairs compounds with measured IC50.
The figure you give is taken to be in nM; do not add the unit.

INSERT INTO measurements (compound, tested_system, uom, result_value) VALUES
  ('Cc1cc2cc(C(=O)N(Cc3cc(C#N)ccn3)[C@H](C)c3ncccn3)ccc2nc1N', 'HCT116 MTAP null cells', 'nM', 552),
  ('Cc1cc2cc(C(=O)N(Cc3ccc(C(F)(F)F)cn3)[C@H](C)c3cccc(C#N)n3)ccc2nc1N (single isomer, unassigned)', 'HCT116 MTAP null cells', 'nM', 422),
  ('Cc1cc2cc(C(=O)N(Cc3ccc(C(F)(F)F)cn3)[C@H](C)c3ncccn3)c(Cl)cc2nc1N', 'HCT116 MTAP null cells', 'nM', 76),
  ('Cc1cc2cc(C(=O)N(Cc3ccc(C(F)(F)F)cn3)[C@@H]3CCOC[C@H]3O)ccc2nc1N (single isomer, unassigned) [Example 815]', 'HCT116 MTAP null cells', 'nM', 250),
  ('Cc1cc2cc(C(=O)N(Cc3ccc(C(F)(F)F)cn3)C3CCc4cn[nH]c4C3)ccc2nc1N (stereo not shown)', 'HCT116 MTAP null cells', 'nM', 180);

Query :: What IC50 value was documented for this compound, `Cc1cc2cc(C(=O)N(Cc3ccn4ccnc4c3)Cc3ccc(C(F)(F)F)cn3)ccc2nc1N` ?
Result :: 133

Query :: Same question for `Cc1cc2cc(C(=O)N(Cc3ccc(C4CC4)cn3)[C@H](C)c3ncccn3)ccc2nc1N` please.
Result :: 19

----------
Tested on: HCT116 MTAP null cells
Assay: HCT116 proliferation assay, MTAP null cells (CellTiter-Glo, 6 days)
Assay type: cell-based
Conditions: HCT116-MTAP null, 144 h, read-out: Protif_ HCT116-MTAP null IC50
Method: HCT116 MTAP null and WT cells were seeded in 96-well tissue culture plates in RPMI 1640 media + 10% fetal bovine serum. Plates were incubated overnight at 37° C. and 5% CO2. […] Effects on cell viability were measured with the CellTiter-Glo® Luminescent Cell Viability Assay (Promega) per manufacturer’s recommendation. Assay plates were read on an EnVision™ Multilabel Reader using the Ultra-Sensitive luminescence module.
# IC50 values compiled below
Kindly answer with a numeric value in nM, unit omitted.

Here is how some compounds turned out for IC50.
INSERT INTO results (compound, uom, result_value) VALUES
  ('Cc1cc2cc(C(=O)N(Cc3ccc(C#N)cn3)[C@@H](c3ncccn3)C3CC3)ccc2nc1N [Example 423]', 'nM', 54),
  ('Cc1cc2cc(C(=O)N(Cc3cc(Cl)ccn3)CC(C)C)ccc2nc1N [Example 639]', 'nM', 580),
  ('Cc1cc2cc(C(=O)N(Cc3ccc(-c4cc[nH]n4)cc3)Cc3ccc(C(F)(F)F)cn3)ccc2nc1N [Example 647]', 'nM', 320),
  ('Cc1cc2cc(C(=O)N(Cc3ncccc3F)[C@H]3COc4cc(C(F)(F)F)ccc43)ccc2nc1N (single isomer, unassigned) [Example 524]', 'nM', 135),
  ('Cc1cc2cc(C(=O)N(Cc3ccc(N4CCOCC4)nn3)[C@H](C)c3ncccn3)ccc2nc1N [Example 555]', 'nM', 125);

Query :: Consider the compound shown here: Cc1cc2cc(C(=O)N(Cc3ccc(CO)c(F)c3)Cc3ccc(C(F)(F)F)cn3)ccc2nc1N [Example 566] What is its recorded IC50?
Result :: 277
